- measured on: T1, rat PTH-1R (rat PTHR endogenously expressed on UMR-106 rat osteosarcoma cells) (rat, UniProt P25961 27-591)
- T1 sequence (looked up): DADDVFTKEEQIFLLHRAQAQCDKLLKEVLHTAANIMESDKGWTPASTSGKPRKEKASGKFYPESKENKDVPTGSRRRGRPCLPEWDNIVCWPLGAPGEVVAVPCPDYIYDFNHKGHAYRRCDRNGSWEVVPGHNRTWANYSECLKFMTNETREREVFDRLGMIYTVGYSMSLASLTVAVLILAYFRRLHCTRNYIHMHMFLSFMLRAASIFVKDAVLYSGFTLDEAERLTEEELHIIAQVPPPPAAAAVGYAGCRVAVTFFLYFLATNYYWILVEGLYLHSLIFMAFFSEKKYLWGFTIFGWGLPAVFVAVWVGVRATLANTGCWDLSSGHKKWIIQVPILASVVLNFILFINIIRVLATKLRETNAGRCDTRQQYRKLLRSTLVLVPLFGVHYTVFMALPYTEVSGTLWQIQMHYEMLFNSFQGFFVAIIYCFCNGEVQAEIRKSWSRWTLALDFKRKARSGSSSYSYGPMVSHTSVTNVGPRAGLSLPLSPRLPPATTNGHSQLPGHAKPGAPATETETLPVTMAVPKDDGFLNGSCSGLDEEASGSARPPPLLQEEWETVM
- experiment: cell-based or functional assay
*1 amine or outer side, *2 acyl side, *3 side chain or, on linkers, in order; H or OH if unused. Where no end group is shown, it is not given here. [ ]: non-standard residue; d: D form. αMe‑APPA = 2-amino-2-methyl-5-phenylpentanoic acid, C[C@@](CCCc1ccccc1)(N[*:1])C(=O)[*:2]; Arg(NO2) = N=C(NCCC[C@H](N)C(=O)O)N[N+](=O)[O-]; αMePhe(2,6-F2) = C[C@](N)(Cc1c(F)cccc1F)C(=O)O; αMePhe(2-F) = C[C@](N)(Cc1ccccc1F)C(=O)O; αMeW = C[C@](N)(Cc1c[nH]c2ccccc12)C(=O)O; hArg = N=C(N)NCCCC[C@H](N)C(=O)O; hCit = NC(=O)NCCCC[C@H](N)C(=O)O; Cit = NC(=O)NCCC[C@H](N)C(=O)O; αMeV = CC(C)[C@](C)(N)C(=O)O; αMeM = CSCC[C@](C)(N)C(=O)O; Nle = CCCC[C@H](N)C(=O)O; Orn = NCCC[C@H](N)C(=O)O; Ac5c = NC1(C(=O)O)CCCC1; Aib = CC(C)(N)C(=O)O
experimental endpoint: cAMP released with respect to control, 1 nM peptide, UMR-106 cells

>>> reading("[Aib]V[Aib]EIQ[αMePhe(2,6-F2)][Nle]HQ[αMePhe(2,6-F2)][Aib][Cit][αMePhe(2,6-F2)] [Seq. ID. 486]")
"34 percent of control"
>>> reading("[αMeV][Ac5c]V[Aib]EIQL[αMeM]HQ[hArg]A[hArg][αMeW][αMe‑APPA] [Seq. ID. 954]")
"36 percent of control"
>>> reading("[Ac5c]V[Aib]EIQ[αMePhe(2,6-F2)][Nle]HQ[Orn]A[Aib][αMePhe(2,6-F2)] [Seq. ID. 311]")
"26 percent of control"
>>> reading("[Aib]V[Aib]EIQ[αMePhe(2,6-F2)][Nle]HQ[Cit]A[Arg(NO2)][αMePhe(2-F)] [Seq. ID. 397]")
"38 percent of control"
>>> reading("[Aib]V[Aib]EIQ[αMePhe(2,6-F2)][Nle]HQ[hCit]A[Arg(NO2)][αMePhe(2-F)] [Seq. ID. 461]")
"56 percent of control"
